species on record: Homo sapiens; experiment: Selectivity index, ratio of IC50 for human BuChE to IC50 for human AChE
attributeMeasured: Selectivity Index
Answer with a number only.

# smilesString, recordedNumber
records = [
    ("COc1ccc(CN2CCC(c3oc4ccccc4c3C(=O)c3ccc(OC)cc3)CC2)cc1", 0.99),
    ("Oc1ccc(CN2CCC(c3cc4ccccc4o3)CC2)cc1", 1.8),
]

Lab note: next compound to report on.
Input COc1ccc(CN2CCC(c3oc4ccccc4c3C(=O)c3ccc(OC)c(OC)c3)CC2)cc1OC . Output Selectivity Index: 0.9

====

target: UniProtKB P05067; assay: Inhibition of human amyloid beta (25 to 35) self-induced aggregation at 100 uM after 48 hrs by thioflavin-T fluorescence relative to control
Sequence (P05067 whole entry): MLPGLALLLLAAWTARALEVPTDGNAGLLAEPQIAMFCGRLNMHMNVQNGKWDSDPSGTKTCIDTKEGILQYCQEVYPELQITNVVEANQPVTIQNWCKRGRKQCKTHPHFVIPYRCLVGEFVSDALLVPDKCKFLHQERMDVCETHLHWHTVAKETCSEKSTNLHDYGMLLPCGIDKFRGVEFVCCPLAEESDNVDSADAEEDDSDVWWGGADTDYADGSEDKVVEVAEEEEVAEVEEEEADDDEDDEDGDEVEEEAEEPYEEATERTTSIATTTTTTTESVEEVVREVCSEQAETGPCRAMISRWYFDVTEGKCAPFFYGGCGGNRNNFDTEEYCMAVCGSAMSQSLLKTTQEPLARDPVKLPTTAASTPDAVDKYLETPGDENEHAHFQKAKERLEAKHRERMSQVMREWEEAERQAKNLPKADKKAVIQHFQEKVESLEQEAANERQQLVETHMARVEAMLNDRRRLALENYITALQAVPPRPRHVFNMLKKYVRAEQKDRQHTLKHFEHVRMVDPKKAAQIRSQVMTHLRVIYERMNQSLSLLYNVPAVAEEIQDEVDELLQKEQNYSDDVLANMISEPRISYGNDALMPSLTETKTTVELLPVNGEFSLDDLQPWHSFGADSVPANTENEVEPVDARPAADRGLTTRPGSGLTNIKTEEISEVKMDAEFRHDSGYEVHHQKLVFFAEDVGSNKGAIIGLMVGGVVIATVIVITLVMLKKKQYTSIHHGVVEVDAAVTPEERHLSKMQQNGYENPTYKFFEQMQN
Classification field: true = inhibition at or over 40%; false = inhibition under 40%.

Answered examples (10):
# smilesString, labelClass
records = [
    ("COc1ccc(C(=O)c2c(C3CCN(Cc4ccccc4)CC3)oc3ccccc23)cc1", "true"),
    ("c1ccc2oc(C3CCNCC3)cc2c1", "true"),
    ("Clc1ccc(CN2CCC(c3cc4ccccc4o3)CC2)cc1", "false"),
    ("COc1ccc(CN2CCC(c3cc4ccccc4o3)CC2)cc1", "false"),
    ("COc1ccc(C(=O)c2c(C3CCN(Cc4cc(OC)ccc4OC)CC3)oc3ccccc23)cc1", "true"),
    ("COc1ccc(CN2CCC(c3oc4ccccc4c3C(=O)c3ccccc3)CC2)cc1", "true"),
    ("COc1ccc(CN2CCC(c3oc4ccccc4c3C(=O)c3ccc(OC)cc3)CC2)cc1", "true"),
    ("CCc1ccc(CN2CCC(c3cc4ccccc4o3)CC2)cc1", "false"),
    ("COc1ccc(CN2CCC(c3oc4ccccc4c3C(=O)c3ccccc3)CC2)cc1OC", "true"),
    ("COc1ccc(CN2CCC(c3cc4ccccc4o3)CC2)cc1OC", "false"),
]

Answer whether inhibition of Oc1ccc(CN2CCC(c3cc4ccccc4o3)CC2)cc1 is greater than or equal to 40%.
true

Answer whether inhibition of COc1ccc(CN2CCC(c3oc4ccccc4c3C(=O)c3ccc(OC)c(OC)c3)CC2)cc1OC is greater than or equal to 40%.
true

Answer whether inhibition of Fc1ccc(CN2CCC(c3cc4ccccc4o3)CC2)cc1 is greater than or equal to 40%.
true

These measurements were taken from ChEMBL document CHEMBL4825688.
